Experiment: qHTS Assay for Inhibitors of Hepatitis C Virus (HCV)
Conditions: Huh7.5.1 HCVcc-Cre infection, luciferase reporter, 44 h; series mostly up to 41.8 µM
Screen size: about 340,000 compounds; about 12,000 (3.5%) were called active. Roughly 18% stayed inconclusive and do not appear here. Calls follow the shape of the dose curve; as a rule, active = well fitted inhibition curve with a large enough effect; inconclusive = small, poorly fitted or top-dose-only effect, or another doubt; inactive = no such curve, though single readings can be large or run the other way. Many of the other results were omitted from the sample, so actives are more common in it than they were.
Just give me one of these, please: True for active, False for inactive

[Q] Assay outcome for "Cc1cc(C)cc(NC(=O)CN2C(=O)c3ccccc3C2=O)c1" : what was it?
[A] False

[Q] # repeat for "CCn1c(/C=N/NC(=O)c2ccc(OC)cc2)nc2ccccc21"
[A] True

[Q] Queued: "COc1cc(/C=N/O)cc(Br)c1OS(=O)(=O)c1ccc(C)cc1"
[A] False

* * *

Assay: qHTS Assay for Inhibitors of Hepatitis C Virus (HCV)
Details: Huh7.5.1 HCVcc-Cre infection, luciferase reporter, 44 h; series mostly up to 41.8 µM
The whole screen tested about 340,000 compounds, of which about 12,000 (3.5%) were called active. Not shown: some 18% with an inconclusive outcome. Calls follow the shape of the dose curve; as a rule, active = well fitted inhibition curve with a large enough effect; inconclusive = small, poorly fitted or top-dose-only effect, or another doubt; inactive = no such curve, though single readings can be large or run the other way. The sample as a whole holds a higher share of actives than the screen did.
Choose the fitting class; nothing outside YES = active, NO = inactive is accepted.

Take a look at these entries with their results.
[
  {
    "Molecule": "COc1ccc([N+](=O)[O-])cc1-c1nc2ccccc2nc1-c1ccccc1",
    "Category label": "NO"
  },
  {
    "Molecule": "COC(=O)c1c(-c2ccsc2)oc2ccc(-c3cc(OC)c(OC)c(OC)c3)cc12",
    "Category label": "YES"
  }
]

[Q] Per the records of this test, what outcome belongs to "COc1cc(C(=O)NCc2ccncc2)cc(Br)c1OCc1ccccc1" ?
[A] YES

* * *

Experiment: qHTS Assay for Inhibitors of Hepatitis C Virus (HCV)
Settings: Huh7.5.1 HCVcc-Cre infection, luciferase reporter, 44 h; series mostly up to 41.8 µM
Excerpt: Hepatitis C virus (HCV) infects about 200 million people in the world. Many infected people progress to chronic liver disease including cirrhosis with a risk of developing liver cancer. To date, there is no effective vaccine for hepatitis C. Current therapy based on interferon is only effective in about half of the patients and is associated with significant adverse effects. The fraction of people with HCV who can complete a successful treatment is estimated to be no more than 10 percent. […]
Out of some 340,000 compounds screened, about 12,000 (3.5%) were called active. Inconclusive results (about 18%) are left out. Calls follow the shape of the dose curve; as a rule, active = well fitted inhibition curve with a large enough effect; inconclusive = small, poorly fitted or top-dose-only effect, or another doubt; inactive = no such curve, though single readings can be large or run the other way. This is one part of a sample in which actives are shown more often than they occur.
Pick one and only one: yes (1) = active, no (0) = inactive

Here's what some known entries look like.
[
  {
    "Compound": "COc1ccc(CCNC(=O)C(=O)NCC2OCCN2S(=O)(=O)c2ccc(OC)c(C)c2)cc1 (centres undefined)",
    "Category label": "yes (1)"
  },
  {
    "Compound": "NN=C(NN=Cc1ccccc1)c1ccccc1",
    "Category label": "no (0)"
  },
  {
    "Compound": "Cc1ccc(-c2nn(-c3ccc(F)cc3)cc2C(=O)NCC(c2cccs2)N2CCOCC2)cc1 (centres undefined)",
    "Category label": "no (0)"
  },
  {
    "Compound": "CC(=O)Nc1ccc(S(=O)(=O)N2CCN(S(=O)(=O)c3cccs3)CC2)cc1",
    "Category label": "no (0)"
  }
]

[Q] # fetch the recorded call for "O=C(Cn1cnc2ccccc2c1=O)NNC(=O)c1ccccc1F" here
[A] no (0)

[Q] And then "Cc1cc(C(=O)N/N=C/c2cc([N+](=O)[O-])cc(C)c2O)n[nH]1" , what is it?
[A] no (0)

[Q] And for "CSc1ncc(Cl)c(C(=O)Nc2cc(C)ccc2C)n1" ?
[A] no (0)

* * *

Test: qHTS Assay for Inhibitors of Hepatitis C Virus (HCV)
Settings: Huh7.5.1 HCVcc-Cre infection, luciferase reporter, 44 h; series mostly up to 41.8 µM
Screen size: about 340,000 compounds; about 12,000 (3.5%) were called active. Not shown: some 18% with an inconclusive outcome. Calls come from the whole dose curve; as a rule, active = well fitted inhibition curve with a large enough effect; inconclusive = small, poorly fitted or top-dose-only effect, or another doubt; inactive = no such curve, though single readings can be large or run the other way. Many of the other results were omitted from the sample, so actives are more common in it than they were.
Choose one outcome from this list and give only that: active, inactive

[Q] Kindly provide the recorded test outcome for the following compound: CCCC(=O)NC(C)C(c1cccs1)N1CCN(c2ccccc2)CC1 (configuration not stated)
[A] inactive

[Q] Please do the same for "COc1ccc(OC)c(NC(=O)c2ccc3c(c2)C(=O)N(c2ccc(OC(C)=O)cc2)C3=O)c1" as well.
[A] inactive

[Q] Next up: "COc1ccc(C(=O)NCc2ccc(Cl)cc2)cc1S(=O)(=O)N1CCCC1"
[A] inactive

[Q] Check "CN(C)C(=O)CCc1ccc2c3c([nH]c2c1)[C@]1(C)[C@@H](C(=O)N2CCCCC2)C[C@H](CC(=O)NCCC2=CCCCC2)C(=O)N1CC3" too.
[A] inactive

[Q] Similarly, "CCOc1ccc(NC(=O)Nc2cc(C)on2)cc1" ?
[A] inactive

[Q] // same read-out, input: "Cc1ccc(-c2cc(=O)[nH]c(NCc3ccccc3)n2)cc1"
[A] inactive

[Q] Consider next the compound "Oc1c(C=Nc2cccc3nsnc23)ccc2ccccc12" in the same way.
[A] inactive

[Q] Cool, now "CCn1c(COc2ccc(OC)cc2)nnc1SCC(=O)Nc1cc(OC)ccc1OC"
[A] active

[Q] Query "Oc1ccc2ccccc2c1N=Nc1nccs1" next
[A] active

[Q] Another compound to check: "CSc1ccccc1C(=O)OCC(=O)N1CCN(C(C)=O)CC1"
[A] inactive

[Q] And then "CCC(=O)NC(=S)Nc1ccc(NC(=O)c2ccco2)c(Cl)c1" , what is it?
[A] inactive

[Q] // same read-out, input: "COc1cc(/C=C/C(=O)OCC(=O)N2CCOCC2)ccc1OCC#N"
[A] inactive

* * *

Assay: qHTS Assay for Inhibitors of Hepatitis C Virus (HCV)
Conditions: Huh7.5.1 HCVcc-Cre infection, luciferase reporter, 44 h; series mostly up to 41.8 µM
From the text: Hepatitis C virus (HCV) infects about 200 million people in the world. Many infected people progress to chronic liver disease including cirrhosis with a risk of developing liver cancer. To date, there is no effective vaccine for hepatitis C. Current therapy based on interferon is only effective in about half of the patients and is associated with significant adverse effects. The fraction of people with HCV who can complete a successful treatment is estimated to be no more than 10 percent. […]
About 12,000 (3.5%) of roughly 340,000 compounds were called active. About 18% were inconclusive and are not listed. Calls come from the whole dose curve; as a rule, active = well fitted inhibition curve with a large enough effect; inconclusive = small, poorly fitted or top-dose-only effect, or another doubt; inactive = no such curve, though single readings can be large or run the other way. The entries come from a sample that favours actives as a whole.
Allowed answers: active, inactive

Previously resolved entries follow.
[
  {
    "Molecule": "CN1CCc2nc(SC(C(=O)O)c3ccccc3)c(C#N)c(-c3cccs3)c2C1 (configuration not stated)",
    "Category label": "active"
  },
  {
    "Molecule": "Cc1cccc(NC(=O)c2cccc(C(F)(F)F)c2)c1",
    "Category label": "inactive"
  },
  {
    "Molecule": "COC(=O)c1cc(C(=O)CSc2nc(C)cc(C)n2)ccc1O",
    "Category label": "inactive"
  },
  {
    "Molecule": "CC(NC(=O)CSc1nc2c(cc1C#N)CN(C)CC2)c1ccccc1 (configuration not stated)",
    "Category label": "inactive"
  },
  {
    "Molecule": "O=C(COC(=O)c1ccccc1Cl)NC1CCCCCCC1",
    "Category label": "inactive"
  },
  {
    "Molecule": "CCCCn1c(=O)c(C(C)=O)c(O)c2ccccc21",
    "Category label": "inactive"
  },
  {
    "Molecule": "CN1CCc2c(sc3c2c(NCc2ccco2)nc2nnnn23)C1",
    "Category label": "active"
  },
  {
    "Molecule": "CC(=O)N(C)c1ccc(NC(=O)Nc2cccc3ccccc23)cc1",
    "Category label": "active"
  },
  {
    "Molecule": "COC(=O)C1=C(C)NC(=S)NC1c1ccc(OCC(=O)N2CC(C)OC(C)C2)c(OC)c1 (configuration not stated)",
    "Category label": "inactive"
  },
  {
    "Molecule": "O=C(NCc1ccccc1)C1=C[C@@H](c2ccccc2)C[C@@H](OCCCCO)O1",
    "Category label": "inactive"
  }
]

[Q] What classification did "O=C(CNS(=O)(=O)c1ccc2c(c1)OCCCO2)N1CCN(c2ccc(F)cc2)CC1" end up with in this test?
[A] inactive

[Q] Now try "O=C(Nc1ccc2c(c1)C(=O)OC2)Nc1cccc2ccccc12" .
[A] inactive

[Q] "COc1ccc(CCC(=O)c2ccc(OC)cc2)cc1" ?
[A] inactive

[Q] Further, for "O=C(O)Cc1ccc(NC(=O)Nc2cccc3ccccc23)cc1" ?
[A] inactive

[Q] "Cc1c(-c2ccccc2)nc(N)c(C#N)c1-c1cccs1" ?
[A] inactive

[Q] What would you report for "c1ccc2c(c1)OC1OC2Oc2ccccc21" ?
[A] inactive

[Q] Continue with "CC(=O)c1ccc2c(c1)c1ccccc1n2CC(C)C"
[A] active
